target desc: recombinant human XT-I (Homo sapiens, UniProt Q86Y38)
Sequence (Q86Y38 252-959 limits assumed): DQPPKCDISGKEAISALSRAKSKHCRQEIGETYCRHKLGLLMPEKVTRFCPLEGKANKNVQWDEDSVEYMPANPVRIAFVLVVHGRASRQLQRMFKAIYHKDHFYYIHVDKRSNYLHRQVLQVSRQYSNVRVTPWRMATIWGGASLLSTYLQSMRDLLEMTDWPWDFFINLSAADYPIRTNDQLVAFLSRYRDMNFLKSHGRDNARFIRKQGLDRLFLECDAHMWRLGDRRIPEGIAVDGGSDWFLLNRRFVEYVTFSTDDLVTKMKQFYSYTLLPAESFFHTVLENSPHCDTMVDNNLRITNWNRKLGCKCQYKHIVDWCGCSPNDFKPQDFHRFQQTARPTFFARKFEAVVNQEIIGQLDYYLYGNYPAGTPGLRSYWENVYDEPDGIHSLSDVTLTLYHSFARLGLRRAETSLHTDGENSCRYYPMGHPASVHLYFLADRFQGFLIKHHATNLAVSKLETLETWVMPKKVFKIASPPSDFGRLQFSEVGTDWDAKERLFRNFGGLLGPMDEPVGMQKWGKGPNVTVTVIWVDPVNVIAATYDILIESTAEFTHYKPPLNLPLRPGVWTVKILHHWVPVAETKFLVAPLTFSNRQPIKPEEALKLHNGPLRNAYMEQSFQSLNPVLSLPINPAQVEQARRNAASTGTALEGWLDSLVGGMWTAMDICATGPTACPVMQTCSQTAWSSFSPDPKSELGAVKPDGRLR
method summary: NP library inhibitor screening, UPLC/ESI-MS/MS XT-I assay
Type: biochemical
protocol conditions: Table S1; 50 μM inhibitor; relative to negative control containing DMSO; technical duplicates
The label 1.0 is reserved for remaining activity at 50 µM strictly under 70%; 0.0 covers values equal to or above it.

[[record]]
molecule = "CCC(C)(C)C(=O)O[C@H]1C[C@@H](C)C=C2C=C[C@H](C)[C@H](CC[C@@H]3C[C@@H](O)CC(=O)O3)[C@H]21"
assigned_label = 0.0

[[record]]
molecule = "CN(C)c1cc(NC(=O)CNC(C)(C)C)c(O)c2c1C[C@H]1C[C@H]3[C@H](N(C)C)C(O)=C(C(N)=O)C(=O)[C@@]3(O)C(O)=C1C2=O"
assigned_label = 1.0


Item Clc1ccc(C(Cn2ccnc2)OCc2ccsc2Cl)c(Cl)c1 (stereo not drawn) : remaining activity at 50 µM beneath 70%, strictly?
0.0

Given the entry C[C@@H]1[C@H](O)[C@@H](C)/C=C/C=C/C=C/C=C/C=C/C=C/C=C/[C@H](O[C@@H]2O[C@H](C)[C@@H](O)[C@H](N)[C@@H]2O)C[C@@H]2O[C@](O)(C[C@@H](O)C[C@@H](O)[C@H](O)CC[C@@H](O)C[C@@H](O)CC(=O)O[C@H]1C)C[C@H](O)[C@H]2C(=O)O , would its reported remaining activity at 50 µM be below 70%?
1.0
